Recorded values, source paper PMC7954794.

system: Abp1 PPIs; experiment: DHFR-PCA of Abp1 SH3-swapped baits (Fig. 2B-D, S2C, S2F); assay type: cell-based, Saccharomyces cerevisiae; conditions: distance to Abp1 bait with NBP2 SH3; sheet Fig2C;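 also: Euclidean distance between DHFR-PCA score profiles of the baits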
VALUE KIND: Protein-protein interaction distance between Abp1 SH3-swapped baits, to NBP2
Enter the number alone.

Sample PEX13 (protein, UniProt P80667 1-386, looked up) Peroxisomal membrane protein …: MSSTAVPRPKPWETSASLEEPQRNAQSLSAMMTSNQQDSRPTEESNNSNSASESAPEVLPRPAALNSSGTYGESNTIPGIYGNSNYGIPYDNNPYSMNSIYGNSIGRYGYGGSYYGNNYGSFYGGGYGAGAGYGMNNGSGLGESTKATFQLIESLIGAVTGFAQMLESTYMATHNSFFTMISVAEQFGNLKEMLGSFFGIFAIMKFLKKILYRATKGRLGIPPKNFAESEGSKNKLIEDFQKFNDSGTINSNEKATRRKISWKPLLFFLMAVFGFPYLLNKFITKLQTSGTIRASQGNGSEPIDPSKLEFARALYDFVPENPEMEVALKKGDLMAILSKKDPLGRDSDWWKVRTKNGNIGYIPYNYIEIIKRRKKIEHVDDETRTH — what was its Protein-protein interaction distance between Abp1 SH3-swapped baits, to NBP2?
19.13

Next molecule up: PIN3 (protein, UniProt Q06449 2-215, looked up) [PSI+] inducibility protein 3: SASLINRSLTNIRTELDFLKGSNVISNDVYDQINKSLPAKWDPANAPRNASPASLEYVEALYQFDPQQDGDLGLKPGDKVQLLEKLSPEWYKGSCNGRTGIFPANYVKPAFSGSNGPSNLPPPPQYKAQELQQIPTQNSAASSYQQQPFPPPSTNYYQQPQQQPQQAPPPQQQQQQQQHQSSHSHLKSFGSKLGNAAIFGAGASIGSDIVNNIF
18.8

Next molecule up: LSB1 (protein, UniProt P53281 2-241, looked up) LAS seventeen-binding protein …: SASLVNRSLKNIRNELEFLKESNVISGDIFELINSKLPEKWDGNQRSPQNADTEEYVEALYDFEAQQDGDLSLKTGDKIQVLEKISPDWYRGKSNNKIGIFPANYVKPAFTRSASPKSAEAASSSTVSRPSVPPPSYEPAASQYPSQQVSAPYAPPAGYMQAPPPQQQQAPLPYPPPFTNYYQQPQQQYAPPSQQAPVEAQPQQSSGASSAFKSFGSKLGNAAIFGAGSAIGSDIVNSIF
21.49
